- Experiment Description: Cytotoxicity assay (MTT), Vero cells
- Format: cell-based
- Measurement Conditions: African green monkey
Property Measured: CC50

>>> readout_value("O=c1cc(-c2ccccc2)oc2cc(O)cc(O)c12")
"> 500 µg/mL"
>>> readout_value("O=c1c2cc(O)c(O)cc2oc2cc(O)c([C@@H]3O[C@H](CO)[C@@H](O)[C@H](O)[C@H]3O)c(O)c12")
"> 500 µg/mL"

---

- Experiment Description: Cytotoxicity assay (MTT), LLCMK2 cells
- Assay type: cell-based
- Measurement Conditions: rhesus monkey; MTT; exposure 48 and 72 h; read-out: LLCMK2 CC50
Property Measured: CC50

>>> readout_value("Nc1nc2c(ncn2COCCO)c(=O)[nH]1 [Acyclovir, reference compound]")
"> 1000 µg/mL"
